Every entry's value here was drawn from patent US12247064B2.

- ASSAY_TARGET: α7GlyR W77F Q79G G175K (Homo sapiens, UniProt P36544, G175K/Q79G/W77F)
- Sequence (P36544 with tags, fused parts or gaps W77F/Q79G/G175K): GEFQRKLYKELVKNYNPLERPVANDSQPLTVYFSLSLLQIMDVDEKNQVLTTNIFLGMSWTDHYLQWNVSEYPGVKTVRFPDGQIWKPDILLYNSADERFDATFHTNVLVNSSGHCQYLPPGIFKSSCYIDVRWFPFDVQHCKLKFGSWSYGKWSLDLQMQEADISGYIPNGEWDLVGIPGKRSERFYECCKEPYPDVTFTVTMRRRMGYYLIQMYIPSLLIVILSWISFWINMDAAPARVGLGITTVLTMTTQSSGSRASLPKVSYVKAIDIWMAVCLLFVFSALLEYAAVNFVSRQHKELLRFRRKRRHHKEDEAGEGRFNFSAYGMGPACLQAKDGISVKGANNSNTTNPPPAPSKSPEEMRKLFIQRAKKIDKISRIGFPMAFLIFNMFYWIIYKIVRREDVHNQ
- ASSAY_COMMENT: Agonist potency at chimeric channel
- APPLIED_CONDITIONS: Table 6

# MOLECULE, UNIT_NAME, EC50
records = [
    ("c1ccc2c(c1)Sc1ccccc1N2CC1CN2CCC1CC2 (stereo not shown) [Mequitazine, reference compound]", "nM", 150),
]

---

- ASSAY_TARGET: α7^Q79A-GlyR (Homo sapiens, UniProt P36544, Q79A)
- Sequence (P36544 with tags, fused parts or gaps Q79A): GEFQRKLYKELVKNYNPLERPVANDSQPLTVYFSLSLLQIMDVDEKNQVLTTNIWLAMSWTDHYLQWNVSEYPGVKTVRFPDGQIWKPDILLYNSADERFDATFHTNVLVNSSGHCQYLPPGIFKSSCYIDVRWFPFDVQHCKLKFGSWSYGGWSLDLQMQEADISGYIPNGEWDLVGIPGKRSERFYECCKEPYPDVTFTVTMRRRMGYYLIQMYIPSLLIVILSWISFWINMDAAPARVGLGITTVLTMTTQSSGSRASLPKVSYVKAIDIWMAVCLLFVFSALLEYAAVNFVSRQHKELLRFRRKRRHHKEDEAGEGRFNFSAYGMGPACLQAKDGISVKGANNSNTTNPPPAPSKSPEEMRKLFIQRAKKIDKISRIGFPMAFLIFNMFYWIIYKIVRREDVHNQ
- APPLIED_CONDITIONS: HEK cells; Table 2; read-out: Mean EC50 and SEM in parentheses
pEC50: −log10 of the molar value.

# COMPOUND, pEC50
rows = [
    ("Cn1cc(C(=O)C(=O)NC2CN3CCC2CC3)c2ccccc21 (stereo not shown)", 5.46),
]

---

- ASSAY_TARGET: 5HT3-R (Homo sapiens, UniProt P46098)
- Sequence (P46098 24-478, species assumed): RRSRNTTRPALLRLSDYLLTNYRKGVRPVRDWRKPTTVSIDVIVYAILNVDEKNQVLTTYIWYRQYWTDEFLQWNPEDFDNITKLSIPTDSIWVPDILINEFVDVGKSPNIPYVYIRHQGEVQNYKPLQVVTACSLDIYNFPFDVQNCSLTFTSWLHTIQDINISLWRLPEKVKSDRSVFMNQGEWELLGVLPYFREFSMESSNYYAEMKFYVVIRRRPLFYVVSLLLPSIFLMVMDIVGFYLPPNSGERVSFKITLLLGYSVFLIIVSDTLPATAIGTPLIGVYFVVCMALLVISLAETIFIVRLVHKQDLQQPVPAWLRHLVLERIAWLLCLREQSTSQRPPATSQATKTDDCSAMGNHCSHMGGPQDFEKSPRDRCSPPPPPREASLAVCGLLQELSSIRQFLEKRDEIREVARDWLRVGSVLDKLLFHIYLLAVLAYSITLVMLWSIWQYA
- ASSAY_COMMENT: Agonist potency at 5HT3-R
- Format: cell-based
- APPLIED_CONDITIONS: read-out: EC50MP
PARAMETER: EC50 (µM)

# COMPOUND, ASSAY_TARGET, UNIT_NAME, VALUE_REPORTED
data = [
    ("CCCOc1cnc2cc3c(cc2n1)C1CNCC3C1 (stereo not shown) [compound 817]", "5HT3-R (Homo sapiens, UniProt P46098)", "µM", 1.5),
]

---

pEC50: −log10 of the molar value.
pEC50 data for α7-GlyR (Homo sapiens) follow.

# COMPOUND, ASSAY_TARGET, OPERATOR, pEC50
rows = [
    ("CCCOc1cnc2cc3c(cc2n1)C1CNCC3C1 (stereo not drawn)", "α7-GlyR (Homo sapiens)", "<", 4.00),
    ("O=C(NC1C2CCN(CC2)C1Cc1cccnc1)c1ccc(C(F)(F)F)cc1 (mixture of isomers)", "α7-GlyR (Homo sapiens)", "=", 6.51),
    ("COc1ccc(OC)c(C(=O)NC2C3CCN(CC3)C2Cc2cccnc2)c1 (mixture of isomers)", "α7-GlyR (Homo sapiens)", "<", 5.00),
    ("Cn1c(=O)cnc2cc3c(cc21)C1CNCC3C1 (stereo not drawn)", "α7-GlyR (Homo sapiens)", "<", 4.52),
    ("CCOc1cnc2cc3c(cc2n1)C1CNCC3C1 (stereo not drawn)", "α7-GlyR (Homo sapiens)", "<", 4.00),
    ("Cn1cc(C(=O)C(=O)NC2CN3CCC2CC3)c2ccccc21 (stereo not drawn)", "α7-GlyR (Homo sapiens)", "=", 5.19),
    ("O=C(Nc1ccccc1)N[C@@H]1CN2CCC1CC2", "α7-GlyR (Homo sapiens)", "=", 6.57),
    ("O=C(N[C@@H]1CN2CCC1CC2)c1ccc(C(F)(F)F)cn1", "α7-GlyR (Homo sapiens)", "<", 4.00),
    ("COc1cnc2cc3c(cc2n1)C1CNCC3C1 (stereo not drawn)", "α7-GlyR (Homo sapiens)", "=", 4.72),
]

---

- ASSAY_TARGET: α7-GlyR^A298G (Homo sapiens, UniProt P36544, A298G)
- Sequence (P36544 with tags, fused parts or gaps, stated change not applied): as the sequence (P36544 with tags, fused parts or gaps W77F/Q79G/G175K) above, with F55W, G57Q, K153G, A276G counted along it
- APPLIED_CONDITIONS: HEK cells; Table 2; read-out: Mean EC50 and SEM in parentheses
pEC50: −log10 of the molar value.

# MOLECULE, pEC50
rows = [
    ("Cn1cc(C(=O)C(=O)NC2CN3CCC2CC3)c2ccccc21 (stereo not shown)", 5.64),
]

---

- ASSAY_TARGET: α7GlyR Q79G G175K Y115F (Homo sapiens, UniProt P36544, G175K/Q79G/Y115F)
- Sequence (P36544 with tags, fused parts or gaps Q79G/Y115F/G175K): as the sequence (P36544 with tags, fused parts or gaps Q79A) above, with A57G, Y93F, G153K counted along it
- ASSAY_COMMENT: Agonist potency at chimeric channel
- APPLIED_CONDITIONS: Table 6

# COMPOUND, EC50
rows = [
    ("c1ccc2c(c1)Sc1ccccc1N2CC1CN2CCC1CC2 (stereo not shown) [Mequitazine, reference compound]", "> 10 µM"),
]

---

- ASSAY_TARGET: UniProt:P36544
- ASSAY_COMMENT: cell-based
pEC50: −log10 of the molar value.
Below, each entry is listed alongside its reported pEC50.
PARAMETER: pEC50

# MOLECULE, ASSAY_TARGET, PARAMETER, VALUE_REPORTED
data = [
    ("c1ccn(-c2cnc3cc4c(cc3n2)C2CNCC4C2)c1 (stereo not shown)", "UniProt:P36544", "pEC50", "< 4.00"),
    ("c1ncn(-c2cnc3cc4c(cc3n2)C2CNCC4C2)n1 (stereo not shown)", "UniProt:P36544", "pEC50", "< 4.52"),
    ("Cc1ccccc1-c1cnc2cc3c(cc2n1)C1CNCC3C1 (stereo not shown)", "UniProt:P36544", "pEC50", "< 4.00"),
    ("O=c1[nH]c2cc3c(cc2nc1-c1ccccc1)C1CNCC3C1 (stereo not shown)", "UniProt:P36544", "pEC50", "< 4.52"),
    ("CCN(CC)c1nc2cc3c(cc2nc1C)C1CNCC3C1 (stereo not shown)", "UniProt:P36544", "pEC50", "< 4.52"),
    ("Cc1nc2cc3c(cc2nc1-c1cccnc1)C1CNCC3C1 (stereo not shown)", "UniProt:P36544", "pEC50", "< 4.52"),
    ("c1cc(-c2cnc3cc4c(cc3n2)C2CNCC4C2)ccn1 (stereo not shown)", "UniProt:P36544", "pEC50", "< 4.52"),
    ("COc1nc2cc3c(cc2nc1-c1ccccc1)C1CNCC3C1 (stereo not shown)", "UniProt:P36544", "pEC50", "< 4.00"),
    ("Cc1nc2cc3c(cc2n(C)c1=O)C1CNCC3C1 (stereo not shown)", "UniProt:P36544", "pEC50", "< 4.00"),
    ("COc1nc2cc3c(cc2nc1C)C1CNCC3C1 (stereo not shown)", "UniProt:P36544", "pEC50", "< 4.52"),
]

---

pEC50 values by entry
- Tested on: α7GlyR G175K / A298G mutant chimeric channels
- Format: cell-based, human
- APPLIED_CONDITIONS: read-out: Agonist potency; α7GlyR Q79G A298G Y115F K395 K396A
pEC50: −log10 of the molar value.
PARAMETER: pEC50

# COMPOUND, PARAMETER, VALUE_REPORTED
rows = [
    ("O=c1cccc2n1C[C@@H]1CNC[C@H]2C1", "pEC50", "< 4.52"),
    ("O=C(NC1CN2CCC1CC2)c1ccc(Cl)cc1 (stereo not drawn)", "pEC50", 6.96),
    ("c1cnc2cc3c(cc2n1)[C@@H]1CNC[C@H]3C1", "pEC50", "< 4.52"),
]

---

Reported pEC50, α7-5HT3 (Homo sapiens, UniProt P36544, M226I/T225I).
pEC50: −log10 of the molar value.

# COMPOUND, ASSAY_TARGET, pEC50
measured = [
    ("Cc1ccccc1-c1cnc2cc3c(cc2n1)C1CNCC3C1 (stereo not drawn)", "α7-5HT3 (Homo sapiens, UniProt P36544, M226I/T225I)", 4.97),
    ("Cn1c(=O)cnc2cc3c(cc21)C1CNCC3C1 (stereo not drawn)", "α7-5HT3 (Homo sapiens, UniProt P36544, M226I/T225I)", "< 4.52"),
    ("Cc1nc2cc3c(cc2nc1Cn1cncn1)C1CNCC3C1 (stereo not drawn)", "α7-5HT3 (Homo sapiens, UniProt P36544, M226I/T225I)", "< 4.52"),
    ("Cc1nc2cc3c(cc2n(C)c1=O)C1CNCC3C1 (stereo not drawn)", "α7-5HT3 (Homo sapiens, UniProt P36544, M226I/T225I)", "< 4.00"),
    ("Cc1nc2cc3c(cc2nc1Cn1cccn1)C1CNCC3C1 (stereo not drawn)", "α7-5HT3 (Homo sapiens, UniProt P36544, M226I/T225I)", "< 4.00"),
    ("Cc1nc2cc3c(cc2nc1-n1ccnc1)C1CNCC3C1 (stereo not drawn)", "α7-5HT3 (Homo sapiens, UniProt P36544, M226I/T225I)", "< 4.52"),
    ("COc1nc2cc3c(cc2nc1-c1ccccc1)C1CNCC3C1 (stereo not drawn)", "α7-5HT3 (Homo sapiens, UniProt P36544, M226I/T225I)", "< 4.00"),
    ("Cc1nc2cc3c(cc2nc1-n1cncn1)C1CNCC3C1 (stereo not drawn)", "α7-5HT3 (Homo sapiens, UniProt P36544, M226I/T225I)", "< 4.52"),
    ("Cc1ccccc1-c1cnc2cc3c(cc2n1)C1CC3CN(C)C1 (stereo not drawn)", "α7-5HT3 (Homo sapiens, UniProt P36544, M226I/T225I)", "< 4.00"),
    ("FC(F)(F)c1cnc2cc3c(cc2n1)C1CNCC3C1 (stereo not drawn)", "α7-5HT3 (Homo sapiens, UniProt P36544, M226I/T225I)", "< 4.00"),
    ("c1cncc(-c2nc3cc4c(cc3[nH]2)C2CNCC4C2)c1 (stereo not drawn)", "α7-5HT3 (Homo sapiens, UniProt P36544, M226I/T225I)", "< 4.00"),
    ("O=c1[nH]c2cc3c(cc2nc1-c1ccccc1)C1CNCC3C1 (stereo not drawn)", "α7-5HT3 (Homo sapiens, UniProt P36544, M226I/T225I)", "< 4.52"),
]
